target: Dihydroorotate dehydrogenase (quinone), mitochondrial (Homo sapiens, UniProt Q02127); assay: Inhibition of human recombinant N-terminal His-tagged DHODH (31 to 395 residues) expressed in Escherichia coli using dihydroorotate substrate preincubated for 5 mins followed by substrate addition by DCIP assay
Sequence (Q02127 whole entry, the tested form may be a part): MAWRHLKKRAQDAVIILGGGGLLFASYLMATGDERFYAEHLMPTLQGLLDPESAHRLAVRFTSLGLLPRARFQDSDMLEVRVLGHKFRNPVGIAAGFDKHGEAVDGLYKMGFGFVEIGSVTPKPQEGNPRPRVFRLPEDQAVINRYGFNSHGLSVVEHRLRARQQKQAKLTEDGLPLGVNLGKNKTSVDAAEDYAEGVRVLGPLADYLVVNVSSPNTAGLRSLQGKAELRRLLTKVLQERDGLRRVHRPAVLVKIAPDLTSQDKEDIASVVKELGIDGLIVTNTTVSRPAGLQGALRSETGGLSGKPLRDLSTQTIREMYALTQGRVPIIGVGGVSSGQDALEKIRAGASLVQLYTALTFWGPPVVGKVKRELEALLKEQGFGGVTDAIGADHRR
pIC50: −log10 of the molar value.

# Item Smiles, Assay Target, pIC50
rows = [
    ("NC(=O)c1cc(F)c(F)cc1-n1cc(COc2ccc(C(F)(F)F)cc2)nn1", "Dihydroorotate dehydrogenase (quinone), mitochondrial (Homo sapiens, UniProt Q02127)", 5.68),
]

---

tested on: HepG2; assay: Cytotoxicity against human HepG2 cells incubated for 72 hrs by MTT assay; assay type: functional, cell-based; conditions: HepG2, 72 h
pIC50: −log10 of the molar value.

# Item Smiles, Assay Target, pIC50
data = [
    ("O=C(Nc1ccc(Oc2ncnc3ccsc23)c(F)c1)c1nnn(-c2ccc(Cl)cc2)c1C(F)(F)F", "HepG2", 6.30),
]

---

target: UniProt P07374; test: Inhibition of jack bean urease assessed as reduction in ammonia production by Berthelot colorimetric method
Sequence (P07374 whole entry): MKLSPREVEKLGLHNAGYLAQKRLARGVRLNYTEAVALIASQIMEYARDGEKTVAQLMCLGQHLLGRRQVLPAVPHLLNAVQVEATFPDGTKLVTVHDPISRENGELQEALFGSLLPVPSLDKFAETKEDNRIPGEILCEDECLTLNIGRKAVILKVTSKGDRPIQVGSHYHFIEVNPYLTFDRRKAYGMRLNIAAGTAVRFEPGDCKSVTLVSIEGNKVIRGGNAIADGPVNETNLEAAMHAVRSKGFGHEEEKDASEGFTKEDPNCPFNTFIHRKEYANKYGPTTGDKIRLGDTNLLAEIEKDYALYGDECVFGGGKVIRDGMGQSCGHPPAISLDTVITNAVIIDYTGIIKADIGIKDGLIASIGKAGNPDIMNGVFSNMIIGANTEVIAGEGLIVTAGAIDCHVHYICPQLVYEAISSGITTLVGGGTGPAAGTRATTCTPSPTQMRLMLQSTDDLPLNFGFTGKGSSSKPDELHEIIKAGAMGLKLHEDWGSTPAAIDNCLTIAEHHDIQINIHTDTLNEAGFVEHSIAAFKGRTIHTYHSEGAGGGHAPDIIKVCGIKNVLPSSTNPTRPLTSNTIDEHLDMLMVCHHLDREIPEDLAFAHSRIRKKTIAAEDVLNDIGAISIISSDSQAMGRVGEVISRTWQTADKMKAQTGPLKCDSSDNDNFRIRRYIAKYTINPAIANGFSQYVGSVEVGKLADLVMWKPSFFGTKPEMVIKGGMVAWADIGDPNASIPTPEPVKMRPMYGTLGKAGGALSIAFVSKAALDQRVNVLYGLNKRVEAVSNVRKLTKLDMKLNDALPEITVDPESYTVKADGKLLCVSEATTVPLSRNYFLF

# Item Smiles, IC50, µM
data = [
    ("COc1ccc(NC(=O)NCc2cn(Cc3ccc(Cl)cc3Cl)nn2)cc1", 22.8),
]

---

tested on: A549; assay: Cytotoxicity against human A549 cells incubated for 72 hrs by MTT assay; assay type: functional, cell-based; details: A549, 72 h
pIC50: −log10 of the molar value.

# Item Smiles, pIC50
rows = [
    ("O=C(Nc1ccc(Oc2ncnc3ccsc23)c(F)c1)c1nnn(-c2ccc(Cl)cc2)c1C(F)(F)F", 6.05),
]

---

test: Inhibition of soyabean 5-lipoxygenase using arachidonic acid as substrate incubated for 5 mins by spectrophotometric method; design: species or system Glycine max
pIC50: −log10 of the molar value.
Quantity Name: pIC50

# Item Smiles, Recorded Value
measured = [
    ("CCc1ccc(-n2cc(CNC(=O)C(=O)c3cc4ccccc4[nH]3)nn2)cc1", 5.11),
]

src = ChEMBL document CHEMBL4385639
